Tested on: MDA-N
Experiment: NCI tumour cell line growth inhibition, 48 h
Active and inactive are the calls of the source. No stated cut-off is given here; in the data, active = GI50 up to about 1.1 µM and inactive = higher.
reported endpoint: GI50

INSERT INTO assay_data (compound, recorded_result) VALUES
  ('O=[N+]([O-])c1cccc(/C=N/NC2=CS(=O)(=O)C=C2)c1', '> 100 µM (inactive)'),
  ('O=C(O)Cc1c(-c2ccc([N+](=O)[O-])cc2)c(=O)oc2cc(O)ccc12', '30.4 µM (inactive)'),
  ('CO[C@H]1C[C@](C)(O)Cc2cc3c(c(O)c21)C(=O)c1c(O)cc2c(c1C3=O)O[C@@H]1O[C@@]2(C)[C@H](O)[C@@H](N(C)C)[C@@H]1O', '1.85 µM (inactive)'),
  ('COC(=O)c1ccccc1/C=C1\Cc2cc(C)c(C)cc2C1=O', '> 100 µM (inactive)'),
  ('COc1cccc(CCCNC(=O)Cc2ccccc2CO)c1', '> 100 µM (inactive)'),
  ('NC1=NN(c2ccccc2)C2(O)c3ccncc3C3=NN(c4ccccc4)C(=O)C132 (stereo not given)', '> 100 µM (inactive)'),
  ('CN(N=O)C(=O)NNC(=O)N(C)N=O', '> 100 µM (inactive)'),
  ('O=c1cnn(C2OC(CO)C(O)C2O)c(=S)[nH]1 (stereo not given)', '> 100 µM (inactive)'),
  ('C=C(C(=O)OC)c1cc2ccccc2n1S(=O)(=O)c1ccccc1', '2.7 µM (inactive)'),
  ('c1ccc(-c2cc(-c3cc(-c4ccccc4)[nH]n3)[nH]n2)cc1', '> 100 µM (inactive)');

* * *

Tested on: SN12C
Experiment: NCI tumour cell line growth inhibition, 48 h
Calls of active or inactive are those of the source. Rule as the data show it: active = GI50 up to about 1.1 µM and inactive = higher.
Outcome codes: active, inactive

INSERT INTO assay_data (compound, class_label) VALUES
  ('O=C1C(Cl)=C(N2CCC[C@H]2CO)C(=O)c2c(O)ccc(O)c21', 'inactive'),
  ('COC(=O)C1(CCCCl)CCCN1C(=O)OC(C)(C)C (stereo unspecified)', 'inactive'),
  ('NCCCc1c(-c2ccccc2)[nH]c(N)nc1=O', 'inactive'),
  ('O=C(NCc1ccc(Cl)cc1)c1cc2sccc2nc1C(F)(F)F', 'inactive'),
  ('O=C(OCc1ccccc1)N1N=NC2C1C1CC(OCc3ccccc3)(OCc3ccccc3)C2O1 (stereo unspecified)', 'inactive'),
  ('CC(=O)N1C(Nc2cnc3ccccc3c2)CCN1c1ccccc1 (stereo unspecified)', 'inactive'),
  ('CC(C)(C)NCC(O)COc1cccc2[nH]c(C#N)cc12 (stereo unspecified) [CYANOPINDOLOL]', 'inactive'),
  ('COc1ccc(CNC(=O)[C@H](Cc2ccc(O)cn2)NC(C)=O)cc1OC', 'inactive'),
  ('O=C1C=CC(O)C2C1CC13SSC4(CC5C(=O)C=CC(O)C5N4C1=O)C(=O)N23 (stereo unspecified)', 'active'),
  ('COc1ccccc1NC(=O)NS(=O)(=O)c1ccccc1', 'inactive'),
  ('O=C(CC1(O)C(=O)Nc2ccccc21)c1ccccc1O (stereo unspecified)', 'inactive');

* * *

Tested on: PC-3
Assay: NCI tumour cell line growth inhibition, 48 h
Activity calls are given as the source filed them. No stated cut-off is given here; in the data, active = GI50 up to about 1.1 µM and inactive = higher.
reported endpoint: GI50

INSERT INTO results (molecule, reported_endpoint, recorded_result) VALUES
  ('CC(=O)NCCCCCCNC(C)=O [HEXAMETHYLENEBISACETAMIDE]', 'GI50', '8180 µM (inactive)'),
  ('Cc1ncc([N+](=O)[O-])n1CCNCCCn1ccnc1[N+](=O)[O-]', 'GI50', '> 100 µM (inactive)'),
  ('CCOC(=O)CCC(C(=O)OCC)n1nnc2cc(Nc3c(C)[n+]([O-])c4cc(Cl)ccc4[n+]3[O-])ccc21 (centres undefined)', 'GI50', '> 100 µM (inactive)'),
  ('O=C1Oc2ccc([N+](=O)[O-])cc2N/C1=C\C(=O)c1ccccc1', 'GI50', '72.4 µM (inactive)'),
  ('CC(C)N(C(C)C)S(=O)(=O)C[C@]12CC[C@H](CC13OCC(CS(=O)(=O)c1ccccc1)O3)C2(C)C (some centres undefined)', 'GI50', '35.3 µM (inactive)'),
  ('NCCCN(CCCN)CCc1cn(C(=O)c2ccccc2)cn1', 'GI50', '8.63 µM (inactive)'),
  ('C[C@H](N)C(=O)Nc1ccc(-c2nc3ccccc3s2)cc1', 'GI50', '20.2 µM (inactive)'),
  ('N#CC1=C(S)N(C2OC(CO)C(O)C(O)C2O)C(c2ccccc2)=CC1c1cccs1 (centres undefined)', 'GI50', '15.1 µM (inactive)'),
  ('CCCCCCCc1ccc(-c2nnc(/N=N/c3ccc(OCCCCC)cc3)s2)s1', 'GI50', '> 100 µM (inactive)');

The reported measurements were obtained from ChEMBL document CHEMBL1201862.
